- test description: NCI Yeast Anticancer Drug Screen. Data for the rad50 strain (AID 155);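 further: 0% = growth of vehicle-only cultures of the same strain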
- condition parameters: S. cerevisiae rad50 strain growth inhibition; at 5.0 µM (retest, dose inferred, filed as 0.5)
The panel holds about 79,000 compounds, 15% with a hit somewhere; the sample as a whole holds those more often. Active and inactive are the calls of the source. No stated cut-off is given here; in the data, active means growth inhibition above about 70%; inactive means the rest.
Classes to choose from: active, inactive

Previously resolved entries follow.
# molecule, assigned category
rows = [
    ("CN(Cc1cnc2nc(N)nc(N)c2n1)c1ccc(C(=O)NC(CCC(=O)O)C(=O)O)cc1 (configuration not stated)", "inactive"),
    ("CCOC(=O)c1c(I)[nH]c(I)c1C", "inactive"),
    ("COc1ccc2c(C)cc(N/N=C/c3ccc(OC)c4ccccc34)nc2c1", "inactive"),
    ("COC(=O)C(C#N)=C(SC)SC", "inactive"),
    ("c1ccc(N/N=C(/CC/C(=N\\Nc2ccccc2)c2ccccc2)c2ccccc2)cc1", "inactive"),
    ("CCOC(=O)/C=C/c1ccc([N+](=O)[O-])o1", "inactive"),
    ("Cc1ccnc(NC(c2ccccc2)c2ccc3cccnc3c2O)c1 (configuration not stated)", "inactive"),
    ("Cn1c2c(c3ccccc31)CCN1C[C@@H]3CCCC[C@H]3C[C@@H]21", "inactive"),
]

Per the assay record, what outcome was assigned to O=C(NCCCCCCNC(=O)n1cc(F)c(=O)[nH]c1=O)NCCCOCCOCCOCCOCCOCCOCCOCCOCCOCCOCCOCCOCCOCCOCCOCCOCCOCCOCCOCCOCCOCCCNC(=O)C(O)C(O)C(O)C(O)CO (configuration not stated) ?
inactive

Per the assay record, what outcome was assigned to `N#C/C(=C\c1c(Cl)cccc1Cl)c1nc2ccccc2[nH]1` ?
inactive

Per the assay record, what outcome was assigned to `O=C(Cc1ccc2c(c1)OCO2)c1ccc(O)cc1O` ?
inactive

Per the assay record, what outcome was assigned to `O=C1C(c2ccccc2)=[N+]([O-])c2ccccc21` ?
inactive

Per the assay record, what outcome was assigned to `O=c1cccccc1O` ?
inactive

====

- test description: NCI Yeast Anticancer Drug Screen. Data for the rad50 strain (AID 155);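 further: 0% = growth of vehicle-only cultures of the same strain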
- condition parameters: S. cerevisiae rad50 strain growth inhibition; at 50.0 µM; hits give high values
- Procedure: Growth inhibition of yeast strains with defined genetic alterations is measured as a screen for potential anti-cancer activity. Selected strains with alterations in DNA damage repair or cell cycle control were exposed to compounds and growth inhibition was measured relative to vehicle treated controls. The strain used in this assay is rad50
This is part of a sample that, as a whole, favours compounds with a hit. Of some 79,000 tested, about 15% had one in any assay.
quantity name: growth inhibition (%)
Kindly provide the numeric value in % only, without the unit symbol.

Answered cases to consult:
# compound, unit spec, growth inhibition
data = [
    ("CCCCCCCC/C=C1\\CCC(CN(C)C)C1=O (centres undefined)", "%", 89.6),
    ("COC1/C=C/OC2(C)Oc3c(C)c(OC(C)=O)c4c(c3C2=O)C(=O)C=C(NC(=O)/C(C)=C\\C=C\\C(C)C(O)C(C)C(O)C(C)C(OC(C)=O)C1C)C4=O (centres undefined)", "%", 53.4),
    ("Oc1ccccc1C(c1ccccc1O)C(Cl)(Cl)Cl", "%", 95.7),
    ("CCCCCCCCCC(=O)NN=C(C)C", "%", 93.1),
    ("O=C(Oc1cccc2cccnc12)c1ccccc1", "%", 96.4),
]

Please list growth inhibition recorded for the compound `O=S(=O)(O)SCCNCCCCCC1CCCCC1`
15.3

Please list growth inhibition recorded for the compound `Cn1cc(NC(=O)Nc2cc(C(=O)Nc3cc(C(=O)Nc4ccc5cc(S(=O)(=O)O)cc(S(=O)(=O)O)c5c4)n(C)c3)n(C)c2)cc1C(=O)Nc1cc(C(=O)Nc2ccc3cc(S(=O)(=O)O)cc(S(=O)(=O)O)c3c2)n(C)c1`
91

Please list growth inhibition recorded for the compound `CN(C)CCC(/C=C/c1ccccc1)=N\Nc1ccc(Cl)c(Cl)c1`
99.7

Please list growth inhibition recorded for the compound `Clc1cc(Cl)c(NN=C(c2ccccc2)c2ccccc2)c(Cl)c1`
99.5
